Test system: GRN mRNA
Experiment: GRN mRNA qPCR in SK-N-AS cells transfected with ASOs
Type: cell-based, human
Details: Table 10; SK-N-AS, 7.5 nM, 48 hours; normalized to CO-1589
Oligonucleotides are written 5' to 3', each unit as a sugar letter and its base; * is a phosphorothioate linkage, no mark a phosphodiester; rarer units and linkages stand in square brackets, end groups in braces. Plain capitals give the bases only. e = 2'-O-(2-methoxyethyl) (MOE); [5mC] = 5-methylcytosine
recordedEndpoint: 7.5 nM FC (GRN mRNA) (FC)
Numbers only, in FC.

Before answering, review these 7 worked examples.
[Q] For CO-4631: ASO designed to target intergenic enhancers (eRNA) (antisense eA*e[5mC]*e[5mC]*eA*e[5mC]*eT*e[5mC]*eT*eG*e[5mC]*eA*eG*eT*eT*eG*eT*eA*eT*eG*eG) , what is its reported 7.5 nM FC (GRN mRNA)?
[A] 1.1

[Q] For CO-4637: ASO designed to target intergenic enhancers (eRNA) (antisense eT*eA*eA*eG*eG*eT*eG*eT*eA*eG*eG*eA*e[5mC]*eA*eG*eT*e[5mC]*eT*eG*eA) , what is its reported 7.5 nM FC (GRN mRNA)?
[A] 1.1

[Q] For CO-4124: GRN paRNA-targeting ASO; longer ASO related to CO-3423 (antisense eG*eA*e[5mC]*eT*eT*eG*eG*eG*eA*eG*eT*eG*eG*eT*eG*eA*e[5mC]*eT*eG*eA) , what is its reported 7.5 nM FC (GRN mRNA)?
[A] 1.0

[Q] For CO-4622: ASO designed to target intergenic enhancers (eRNA) (antisense eA*e[5mC]*eA*eG*eT*eG*eG*e[5mC]*e[5mC]*eG*e[5mC]*eA*eT*eA*eA*eA*eT*eT*eT*e[5mC]) , what is its reported 7.5 nM FC (GRN mRNA)?
[A] 1.0

[Q] For CO-4649: ASO designed to target intergenic enhancers (eRNA) (antisense eT*eG*eG*eG*eA*e[5mC]*eA*eG*e[5mC]*eG*eT*eG*eG*eA*eT*eT*eA*eA*eT*eA) , what is its reported 7.5 nM FC (GRN mRNA)?
[A] 1.2

[Q] For CO-4606: ASO designed to target intergenic enhancers (eRNA) (antisense eA*e[5mC]*eG*eT*eG*eA*eA*eG*eA*eG*e[5mC]*e[5mC]*eG*eG*eA*eG*eA*eT*eT*e[5mC]) , what is its reported 7.5 nM FC (GRN mRNA)?
[A] 1.1

[Q] For CO-4611: ASO designed to target intergenic enhancers (eRNA) (antisense eT*eA*eT*eT*eA*eA*eT*e[5mC]*e[5mC]*eA*e[5mC]*eG*e[5mC]*eT*eG*eT*e[5mC]*e[5mC]*e[5mC]*eA) , what is its reported 7.5 nM FC (GRN mRNA)?
[A] 1.1

New cases:
[Q] For CO-4619: ASO designed to target intergenic enhancers (eRNA) (antisense eT*eG*eA*eT*eA*eT*eA*eG*eA*eG*eA*eT*e[5mC]*eT*eG*e[5mC]*eA*eG*e[5mC]*e[5mC]) , what is its reported 7.5 nM FC (GRN mRNA)?
[A] 1.1
